- Condition set: in isobutanol, 303.15 K
Recorded metric: solubility (mole fraction)

• Cc1n[nH]c(=S)s1 = 0.0143

* * *

- Condition set: in methyl acetate, 313.15 K
Recorded metric: solubility (mole fraction)

- Cc1n[nH]c(=S)s1: 0.0313

* * *

- Condition set: in n-pentyl acetate, 318.15 K
Recorded metric: solubility (mole fraction)

• Cc1n[nH]c(=S)s1 = 0.0289

* * *

- Condition set: in ethyl formate, 293.15 K
Recorded metric: solubility (mole fraction)

* Cc1n[nH]c(=S)s1 | 0.0114

* * *

- Condition set: in methanol, 313.15 K
Recorded metric: solubility (mole fraction)

• Cc1n[nH]c(=S)s1 = 0.0292

* * *

- Condition set: in n-propanol, 298.15 K
Recorded metric: solubility (mole fraction)

* Cc1n[nH]c(=S)s1 | 0.0171

* * *

- Condition set: in n-butyl acetate, 283.15 K
Recorded metric: solubility (mole fraction)

• Cc1n[nH]c(=S)s1 = 0.0135

* * *

- Condition set: in ethyl formate, 303.15 K
Recorded metric: solubility (mole fraction)

- Cc1n[nH]c(=S)s1: 0.0151

* * *

- Condition set: in ethyl acetate, 303.15 K
Recorded metric: solubility (mole fraction)

* Cc1n[nH]c(=S)s1 | 0.0244

* * *

- Condition set: in isopropanol, 283.15 K
Recorded metric: solubility (mole fraction)

* Cc1n[nH]c(=S)s1 | 0.00763

* * *

- Condition set: in methanol, 303.15 K
Recorded metric: solubility (mole fraction)

• Cc1n[nH]c(=S)s1 = 0.0213

* * *

- Condition set: in isopropanol, 323.15 K
Recorded metric: solubility (mole fraction)

• Cc1n[nH]c(=S)s1 = 0.0374

* * *

- Condition set: in methanol, 288.15 K
Recorded metric: solubility (mole fraction)

• Cc1n[nH]c(=S)s1 = 0.0129

* * *

- Condition set: in isobutanol, 318.15 K
Recorded metric: solubility (mole fraction)

- Cc1n[nH]c(=S)s1: 0.0271

* * *

- Condition set: in ethyl acetate, 308.15 K
Recorded metric: solubility (mole fraction)

* Cc1n[nH]c(=S)s1 | 0.0272

* * *

- Condition set: in methanol, 318.15 K
Recorded metric: solubility (mole fraction)

* Cc1n[nH]c(=S)s1 | 0.0337

* * *

- Condition set: in isobutanol, 288.15 K
Recorded metric: solubility (mole fraction)

- Cc1n[nH]c(=S)s1: 0.00689

* * *

- Condition set: in ethyl acetate, 298.15 K
Recorded metric: solubility (mole fraction)

- Cc1n[nH]c(=S)s1: 0.0221

* * *

- Condition set: in methyl acetate, 303.15 K
Recorded metric: solubility (mole fraction)

- Cc1n[nH]c(=S)s1: 0.0257

* * *

- Condition set: in n-propyl acetate, 288.15 K
Recorded metric: solubility (mole fraction)

- Cc1n[nH]c(=S)s1: 0.0163

* * *

- Condition set: in ethyl formate, 308.15 K
Recorded metric: solubility (mole fraction)

• Cc1n[nH]c(=S)s1 = 0.0176

* * *

- Condition set: in n-propanol, 318.15 K
Recorded metric: solubility (mole fraction)

• Cc1n[nH]c(=S)s1 = 0.033

* * *

- Condition set: in n-butyl acetate, 323.15 K
Recorded metric: solubility (mole fraction)

* Cc1n[nH]c(=S)s1 | 0.0336

* * *

- Condition set: in isopropanol, 308.15 K
Recorded metric: solubility (mole fraction)

- Cc1n[nH]c(=S)s1: 0.0215

* * *

- Condition set: in isopropanol, 313.15 K
Recorded metric: solubility (mole fraction)

* Cc1n[nH]c(=S)s1 | 0.0258

* * *

- Condition set: in n-propyl acetate, 293.15 K
Recorded metric: solubility (mole fraction)

* Cc1n[nH]c(=S)s1 | 0.0187

* * *

- Condition set: in ethanol, 313.15 K
Recorded metric: solubility (mole fraction)

* Cc1n[nH]c(=S)s1 | 0.0297

* * *

- Condition set: in ethyl formate, 313.15 K
Recorded metric: solubility (mole fraction)

* Cc1n[nH]c(=S)s1 | 0.0202

* * *

- Condition set: in isobutanol, 308.15 K
Recorded metric: solubility (mole fraction)

* Cc1n[nH]c(=S)s1 | 0.0172

* * *

- Condition set: in isobutanol, 313.15 K
Recorded metric: solubility (mole fraction)

- Cc1n[nH]c(=S)s1: 0.0216

* * *

- Condition set: in n-propyl acetate, 283.15 K
Recorded metric: solubility (mole fraction)

* Cc1n[nH]c(=S)s1 | 0.0146

* * *

- Condition set: in methanol, 283.15 K
Recorded metric: solubility (mole fraction)

- Cc1n[nH]c(=S)s1: 0.0104
